Test system: MS2 coat protein
MEASUREMENT_NOTES: apparent KD of MS2 coat protein; designed switch direction (-1 OFF switch, 1 ON switch): 1; higher = weaker reporter binding
APPLIED_CONDITIONS: Eterna round: R95; input ligand: microRNA oligo, concentration not stated
Can you tell me apparent KD of MS2 coat protein for the items I'm about to list?
Field: numeric (nM). Do not append units.

Lookup: State the measured apparent KD of MS2 coat protein (MS2 coat protein) of UAGUACAUGCUUUUUGUCUGUCUUAGAUCACAUGAGGAUCACCCAUGUUUGGUGAAAGUUAUUUUGUUUAUGACUAU [JR_SHM208A_Sub060] (puzzle: Sensor for hsa-mir-208a)
Found: 194

Lookup: State the measured apparent KD of MS2 coat protein (MS2 coat protein) of CAGCGCUGUCGAGAGGAUAUGCAGUGAUGGACAUGAGGAUCACCCAUGUUAGCGAUAGCAUUACGGUAGAAGGCUCUACAGCUGC [Soteed - 13] (puzzle: Same State 2)
Found: 16.4

Lookup: State the measured apparent KD of MS2 coat protein (MS2 coat protein) of UACAAUCUAUCUGAGGAUAUCAUGAACAAAACAUGAGGAUCACCCAUGUGCAGGAAAACUGCAUAUGAGAAGGCAGAUAGAUUGU [Mat - Same State 2 - Mod - D22] (puzzle: Same State 2)
Found: 1560

Lookup: State the measured apparent KD of MS2 coat protein (MS2 coat protein) of AGUCCAGCCUGAGCUGGACUGAAGCAUGUACAUGAGGAUCACCCAUGUUCAUGUGCAAGCUUUUUGCUCGUCUUAUG [JL-shm-2.03 JL mod] (puzzle: Sensor for hsa-mir-208a)
Found: 11.5

Lookup: State the measured apparent KD of MS2 coat protein (MS2 coat protein) of UCUUGGUUUUUGCUCGUUUUUUGUGUUGAACAUGAGGAUCACCCAUGUAUUGUACAAUCCGGUUUGAUGAUGGUCCA [JMF 47] (puzzle: Sensor for hsa-mir-208a)
Found: 58.3
